biological target: plasma protein (HSA column) (Homo sapiens); construct: purchased; assay: Plasma protein binding estimated by HPLC on a […] HSA column; type: in vitro ADME; settings: CHIRALPAK HSA column (50 × 3 mm, 5 μm), estimated by an HPLC-based method, read-out: PPB (plasma protein binding) (converted)
Sequence (P02768 25-609): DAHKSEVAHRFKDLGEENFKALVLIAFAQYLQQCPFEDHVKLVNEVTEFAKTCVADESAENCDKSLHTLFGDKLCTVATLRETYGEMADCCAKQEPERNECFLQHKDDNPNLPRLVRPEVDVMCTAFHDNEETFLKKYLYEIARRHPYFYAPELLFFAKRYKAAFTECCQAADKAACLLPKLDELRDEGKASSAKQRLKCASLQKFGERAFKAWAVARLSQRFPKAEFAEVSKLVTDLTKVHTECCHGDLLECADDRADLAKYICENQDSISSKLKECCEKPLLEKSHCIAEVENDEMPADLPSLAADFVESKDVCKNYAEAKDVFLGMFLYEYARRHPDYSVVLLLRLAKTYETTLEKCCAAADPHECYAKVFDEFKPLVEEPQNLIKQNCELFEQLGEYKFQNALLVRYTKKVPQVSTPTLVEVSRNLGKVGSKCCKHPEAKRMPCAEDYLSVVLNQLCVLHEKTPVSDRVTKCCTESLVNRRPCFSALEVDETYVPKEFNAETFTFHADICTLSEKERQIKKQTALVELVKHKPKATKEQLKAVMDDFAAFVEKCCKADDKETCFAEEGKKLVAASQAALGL

>  <compound>
CN[C@@H](C)C(=O)N[C@H](C(=O)N1C[C@@H](Oc2cccc(OCCCCCCOCCCCCCOCCOc3cc(-c4scnc4C)ccc3CNC(=O)[C@@H]3C[C@@H](O)CN3C(=O)[C@H](C(C)C)N3Cc4ccccc4C3=O)c2)C[C@H]1C(=O)N[C@@H]1CCCc2ccccc21)C1CCCCC1 [PROTAC 17]

>  <fraction unbound at 0.5 mg/mL>
0.03

$$$$
>  <compound>
CC[C@H](NC(=O)[C@H](C)NC)C(=O)N1C[C@@H](O)C[C@H]1Cc1c(-c2[nH]c3cc(F)ccc3c2C[C@@H]2C[C@H](O)CN2C(=O)[C@H](CC)NC(=O)[C@H](C)NC)[nH]c2cc(F)ccc12 [birinapant, reference compound]

>  <fraction unbound at 0.5 mg/mL>
0.05

$$$$
>  <compound>
CN[C@@H](C)C(=O)N[C@H](C(=O)N1CCC[C@H]1c1nc(C(=O)c2ccc(F)cc2)cs1)C1CCCCC1 [LCL161, reference compound]

>  <fraction unbound at 0.5 mg/mL>
0.12

$$$$
